molecular target: human histamine H4 receptor (Homo sapiens); construct: expressed in transfected cells; host or cells: SK-N-MC or COS7 cells, transiently transfected with pH4R; cell membranes; assay: Binding assay on recombinant human histamine H4 receptor; details: 3H-histamine competition; membranes of SK-N-MC or COS7 cells expressing human H4; read-out: Ki
readout: log10(Ki) (log10 of the value in nM)
All values: base-10 log of Ki in nM.

CN1CCN(C(=O)c2cc3sccc3[nH]2)CC1 [Example 7]; 2.10
CC1CN(C(=O)c2cc3scc(Br)c3[nH]2)CCN1 (stereo not shown) [Example 20]; 2.99
O=C(c1cc2ccsc2[nH]1)N1CCN2CCCC2C1 (stereo not shown) [Example 2]; 2.66
CN1CCN(C(=O)c2cc3occc3[nH]2)CC1 [Example 6]; 2.92
CN1CCN(C(=O)c2cc3sc(Cl)c(Cl)c3[nH]2)CC1 [Example 25]; 0.74

[Q] # value lookup — system human histamine H4 receptor (Homo sapiens), readout log10(Ki), item CC1CN(C(=O)c2cc3sccc3[nH]2)CCN1 (stereo not shown) [Example 9]
[A] 2.87

[Q] # value lookup — system human histamine H4 receptor (Homo sapiens), readout log10(Ki), item Cc1cc2[nH]c(C(=O)N3CCN(C)CC3)cc2o1 [Example 14]
[A] 2.54

###

Listed here are compounds together with their documented pKi.
molecular target: human histamine H4 receptor (Homo sapiens, UniProt Q9H3N8); construct: expressed in transfected cells; host or cells: SK-N-MC or COS7 cells, transiently transfected with pH4R; cell membranes; experiment: Binding assay on recombinant human histamine H4 receptor; settings: 3H-histamine competition; membranes of SK-N-MC or COS7 cells expressing human H4; read-out: Ki
Sequence (Q9H3N8 whole entry): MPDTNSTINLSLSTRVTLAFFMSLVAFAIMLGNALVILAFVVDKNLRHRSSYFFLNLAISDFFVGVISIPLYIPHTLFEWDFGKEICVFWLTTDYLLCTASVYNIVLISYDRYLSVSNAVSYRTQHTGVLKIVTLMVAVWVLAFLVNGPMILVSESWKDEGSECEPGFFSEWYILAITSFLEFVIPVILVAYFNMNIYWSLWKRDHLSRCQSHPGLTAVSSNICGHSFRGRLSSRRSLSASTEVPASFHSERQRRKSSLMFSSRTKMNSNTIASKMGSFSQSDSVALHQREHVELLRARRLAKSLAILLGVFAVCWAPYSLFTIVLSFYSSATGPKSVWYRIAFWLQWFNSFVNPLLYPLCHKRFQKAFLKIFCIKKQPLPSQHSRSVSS
Interpret pKi as the negative base-10 log of the concentration measured in mol/L.

For orientation, consider the following solved cases.
CN1CCN(C(=O)c2cc3sc(Cl)cc3[nH]2)CC1; 7.40
O=C(c1cc2cc(Cl)sc2[nH]1)N1CCNCC1; 7.25
Cc1csc2cc(C(=O)N3CCNC(C)C3)[nH]c12 (centres unmarked); 6.79
Cc1oc2cc(C(=O)N3CCN(C)CC3)[nH]c2c1C; 6.85

[Q] Need pKi, item Cc1cc2[nH]c(C(=O)N3CCNCC3)cc2o1
[A] 6.11

###

target: human histamine H4 receptor (Homo sapiens, UniProt Q9H3N8); construct: expressed in transfected cells; host or cells: SK-N-MC or COS7 cells, transiently transfected with pH4R; cell membranes; experiment: Binding assay on recombinant human histamine H4 receptor; details: repeated in the chemotaxis table; read-out: Binding Assay Ki
Listed here are compounds together with their documented pKi.
Interpret pKi as the negative base-10 log of the concentration measured in mol/L.

O=C(c1cc2cc(Cl)sc2[nH]1)N1CCN2CCCC2C1 (centres unmarked) [Example 4]; 6.75
Cc1csc2cc(C(=O)N3CCN(C)CC3)[nH]c12 [Example 13]; 7.68
CN1CCN(C(=O)c2cc3cc(Cl)sc3[nH]2)CC1 [Example 3]; 7.60
CC1CN(C(=O)c2cc3scc(Br)c3[nH]2)CCN1 (centres unmarked) [Example 20]; 6.01

// switching to the query compound
[Q] Need pKi, item CN1CCN(C(=O)c2cc3sc(Cl)cc3[nH]2)CC1 [Example 10]
[A] 7.40

###

Listed here are molecules together with their documented Ki.
molecular target: human histamine H4 receptor (Homo sapiens, UniProt Q9H3N8); construct: expressed in transfected cells; host or cells: SK-N-MC or COS7 cells, transiently transfected with pH4R; cell membranes; experiment: Binding assay on recombinant human histamine H4 receptor; settings: 3H-histamine competition; membranes of SK-N-MC or COS7 cells expressing human H4; read-out: Ki

For orientation, consider the following solved cases.
CN1CCN(C(=O)c2cc3ccsc3[nH]2)CC1 [Example 1]; 0.085 µM
O=C(c1cc2cc(Cl)sc2[nH]1)N1CCN2CCCC2C1 (stereo not drawn) [Example 4]; 0.176 µM

[Q] Need Ki, item Cc1csc2cc(C(=O)N3CCNCC3)[nH]c12 [Example 21]
[A] 0.08 µM

Source listed as patent US7645758B2.
